Origin of measurements: ChEMBL document CHEMBL1129595

system: Escherichia coli; test: In vitro antibacterial activity against Escherichia coli 120; type: functional
measurement-kind: MIC

1. O=C(O)c1cn(C2CC2)c2cc(N3CCNCC3)c(F)cc2c1=O = < 0.016 µg/mL
2. Cc1c(N2CCC(N)C2)ccc2c(=O)c(C(=O)O)cn(C3CC3)c12 (stereo not drawn) = < 0.016 µg/mL
3. Cc1c(N2CC(C)OC(C)C2)ccc2c(=O)c(C(=O)O)cn(C3CC3)c12 (stereo not drawn) = 0.5 µg/mL
4. Cc1c(N2CCC(O)CC2)ccc2c(=O)c(C(=O)O)cn(C3CC3)c12 = 0.06 µg/mL
5. Cc1c(N2CCN(C)CC2)c(F)cc2c(=O)c(C(=O)O)cn(C3CC3)c12 = < 0.016 µg/mL
6. Cc1c(N2CCNCC2)ccc2c(=O)c(C(=O)O)cn(C3CC3)c12.Cl = 0.03 µg/mL
7. Cc1c(N2CCCCC2)c(F)cc2c(=O)c(C(=O)O)cn(C3CC3)c12 = < 0.016 µg/mL
8. CN1CCN(c2cc3c(cc2F)c(=O)c(C(=O)O)cn3C2CC2)CC1 = < 0.016 µg/mL
